# Tested on: HIV-1 clone NL4.3 (subtype B)
# procedureText: HIV-1 NL4.3 (subtype B) infection of MT-4 cells, Cell Titer Blue readout
# Type: cell-based
# conditionSummary: Human immunodeficiency virus 1, MT4; MT-4 cells, Subtype B (X4); value estimated by extrapolation; read-out: EC50
readoutType: EC50 (nM)
Kindly provide the numeric value in nM only, without the unit symbol.

**Query** Query (molecule): Cc1cn([C@H]2C[C@H](N=[N+]=[N-])[C@@H](CO)O2)c(=O)[nH]c1=O [ZDV, Zidovudine, reference compound] ; field requested: EC50
**Result** 4
